The measurements presented in this section are drawn from patent US4520023A.

- System: Chaetomium globosum
I'd be grateful if you could share measured MIC for these entries.

Respectfully, I request MIC for each entry included below.
1. O=c1c2cc([N+](=O)[O-])ccc2nnn1CC#CI [Active compound B]
2. O=c1c2ccc(Cl)cc2nnn1CC#CI [Active compound C]
3. CCCCNC(=O)OCC#CI [Active compound D, iodopropargyl N-butyl-carbamate, reference compound]
4. O=c1c2ccccc2nnn1CC#CI [Active compound A]

## Output
["< 20 µg/mL", "< 20 µg/mL", "60 µg/mL", "< 20 µg/mL"]
